# systemUnderTest: cynomolgus IL-1beta (cynomolgus, UniProt P79182 117-268)
# measurementDescription: SPR (BIAcore); antibody captured by anti-Fc, IL-1beta injected
Binary call on Kd with cut-off 0.5 nM: strictly below means condition met, and equality or higher means condition not met.

binder	classification
huH34-1 (antibody, V domains shown, VH = 01 and VL = 16 read by analogy with huH34-2 (VH 06, VL 16); Humanized) VH: QVQLVQSGAEVKKPGASVKVSCKASGYTFTGYYMHWVRQAPGQGLEWMGYISSYSGFTTYAQKFQGRVTMTRDTSISTAYMELSRLRSDDTAVYYCARSDYYGTSLYWGQGTLVTVSS VL: EIVLTQSPATLSLSPGERATLSCRASSSVSYMHWSQQKPGQAPRLLIYSTSNLASGIPARFSGSGSGTDFTLTISSLEPEDFAVYYCHQWSNYYTFGQGTKLEIK	condition not met
huH34-2 (antibody, V domains shown, Humanized antibody expressed in HEK cells; also called huH34-2 bivalent; humanized version of H34) VH: QVQLVQSGAEVKKPGASVKVSCKASGYTFTGYYMHWVRQAPGQGLEWIGYISSYNAFTTYNQKFRGRATFTVDTSISTAYMELSRLRSDDTAVYYCVRSDYYGTSLYWGQGTLVTVSS VL: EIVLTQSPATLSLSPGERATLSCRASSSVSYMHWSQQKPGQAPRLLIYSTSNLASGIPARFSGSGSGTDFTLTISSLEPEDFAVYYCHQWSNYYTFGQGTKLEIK	condition met
Canakinumab (antibody, V domains shown) VH: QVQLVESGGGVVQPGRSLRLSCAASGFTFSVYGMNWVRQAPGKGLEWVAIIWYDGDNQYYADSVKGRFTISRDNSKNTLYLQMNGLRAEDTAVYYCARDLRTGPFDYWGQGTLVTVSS VL: EIVLTQSPDFQSVTPKEKVTITCRASQSIGSSLHWYQQKPDQSPKLLIKYASQSFSGVPSRFSGSGSGTDFTLTINSLEAEDAAAYYCHQSSSLPFTFGPGTKVDIKR	condition not met
huH34-3 (antibody, V domains shown, VH = 11 and VL = 16 read by analogy with huH34-2) VH: QVQLVQSGAEVKKPGASVKVSCKASGYTFTGYYMHWVRQAPGQGLEWIGYISSYSAFTTYNQKFRGRATFTVDTSISTAYMELSRLRSDDTAVYYCVRSDYYGTSLYWGQGTLVTVSS VL: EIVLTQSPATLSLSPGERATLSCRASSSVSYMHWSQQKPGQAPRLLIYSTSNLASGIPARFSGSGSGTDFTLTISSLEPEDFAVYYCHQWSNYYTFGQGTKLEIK	condition met
